glomerular width values for the compounds below.
# System: Danio rerio Tg(wt1b:EGFP) embryo, pronephros
# ASSAY METHOD TEXT: glomerular width (mean of left and right), fold change vs DMSO control; higher = wider glomerulus
# CONDITION SUMMARY: 25 µM; exposure: 24-48 hpf
Counter-ions that a name gives are not always drawn.
When you answer, write just the number.

See these solved cases before continuing.
- COMPOUND: "Cc1nc(=O)c2cc(CN(C)c3ccc(C(=O)N[C@@H](CCC(=O)O)C(=O)O)s3)ccc2[nH]1 [Raltitrexed]"
  ENDPOINT RESULT: 1.08
- COMPOUND: "COc1ccc2c(c1)C(=O)N(CCc1ccc(S(=O)(=O)NC(=O)NC3CCCCC3)cc1)C(=O)C2(C)C [Gliquidone]"
  ENDPOINT RESULT: 0.883
- COMPOUND: "Nc1ccc(S(N)(=O)=O)cc1 [Sulfanilamide]"
  ENDPOINT RESULT: 1
- COMPOUND: "Cc1ncc(C[n+]2csc(CCO)c2C)c(N)n1 [Thiamine hydrochloride]"
  ENDPOINT RESULT: 1.1
- COMPOUND: "CC(CCc1ccccc1)NCC(O)c1ccc(O)c(C(N)=O)c1 (configuration not stated) [Labetalol hydrochloride]"
  ENDPOINT RESULT: 1.05

Measured glomerular width, Brc1c(NC2=NCCN2)ccc2nccnc12 [Brimonidine L-Tartrate] : 1.11

The compound listed as CCN(CCCCOC(=O)c1ccc(OC)c(OC)c1)C(C)Cc1ccc(OC)cc1 (configuration not stated) [Mebeverine hydrochloride] shows glomerular width equal to 0.986

###

# Test system: Danio rerio Tg(wt1b:EGFP) embryo, pronephros
# ASSAY METHOD TEXT: glomerular width (mean of left and right), fold change vs DMSO control; higher = wider glomerulus
# CONDITION SUMMARY: 25 µM; exposure: 24-48 hpf
Where a name gives a salt, the structure may show the parent alone.
PROPERTY LABEL: glomerular width
Returns: the value as a bare number; no unit string appended.

- MOLECULE: "Cc1cc(/C=C/c2ccc3cc(N(C)C)ccc3[n+]2C)c(C)n1-c1ccccc1 [Pyrvinium pamoate]"
  SYSTEM UNDER TEST: "Danio rerio Tg(wt1b:EGFP) embryo, pronephros"
  glomerular width: 0.975

According to the records, this molecule Cc1cc(=O)oc2cc(O)ccc12 displays glomerular width of 1

Value of measured glomerular width for the entry CC(Cc1cccc(C(F)(F)F)c1)NCCOC(=O)c1ccccc1 (configuration not stated) : 1

So, CC(CCc1ccc(O)cc1)NCCc1ccc(O)c(O)c1 (configuration not stated) [Dobutamine hydrochloride] ? Its glomerular width was 0.999

Reported glomerular width for Cc1onc(-c2ccccc2)c1C(=O)N[C@@H]1C(=O)N2[C@@H]1SC(C)(C)[C@@H]2C(=O)O [Oxacillin sodium] was 1

// recorded glomerular width for O=C(NCCNCC(O)COc1ccc(O)cc1)N1CCOCC1 (configuration not stated) [Xamoterol hemifumarate] : 0.983

response.value for CN1CCC(=C2c3ccccc3Sc3ccccc32)CC1 [Pimethixene maleate] (field: glomerular width) = 1.01

###

# System: Danio rerio Tg(wt1b:EGFP) embryo, pronephros
# ASSAY METHOD TEXT: pronephric angle neck segment to proximal convoluted tubule (mean of left and right), fold change vs DMSO control; higher = larger pronephric angle
# CONDITION SUMMARY: 25 µM; exposure: 24-48 hpf
Structures can show the parent of a compound that is named as a salt.
Each record here notes measured pronephric angle neck segment.
Note: the reply should be a number with no unit written.

Solved entries:
- MOLECULE: "C#C[C@]1(O)CC[C@H]2[C@@H]3[C@H](C)CC4=C(CCC(=O)C4)[C@H]3CC[C@@]21C"
  pronephric angle neck segment: 0.924
- MOLECULE: "CCC(=O)OCC(=O)[C@@]1(OC(=O)CC)[C@H](C)C[C@H]2[C@H]3[C@H]([C@@H](O)C[C@@]21C)[C@@]1(C)C=CC(=O)C=C1C[C@H]3Cl [Alclometasone dipropionate]"
  pronephric angle neck segment: 1.04
- MOLECULE: "CC(C(=O)O)c1cccc(Oc2ccccc2)c1 (stereo unspecified) [Fenoprofen calcium salt dihydrate]"
  pronephric angle neck segment: 1.55

Short answer for CC(=O)OCC(=O)[C@@]1(O)CC[C@H]2[C@@H]3CCC4=CC(=O)CC[C@]4(C)[C@H]3[C@@H](O)C[C@@]21C [Cortisol acetate] : pronephric angle neck segment was 1.01

// CCCCC(CC)CN1CN(CC(CC)CCCC)CC(C)(N)C1 (stereo unspecified) : pronephric angle neck segment value = 0.933

Recorded result, O=C1c2cccc(O)c2C(=O)c2c(O)cccc21 [1,8-Dihydroxyanthraquinone] , pronephric angle neck segment: 1.03

Consider CC(=O)O[C@]1(C(C)=O)CC[C@H]2[C@@H]3C=C(Cl)C4=CC(=O)[C@@H]5C[C@@H]5[C@]4(C)[C@H]3CC[C@@]21C [Cyproterone acetate] . Its measured pronephric angle neck segment is 0.977

Looking up CN(C)CCN(Cc1ccc(Cl)cc1)c1ccccn1 [Chloropyramine hydrochloride] , I see its pronephric angle neck segment listed as 0.964

# molecule CCOc1ccc(Cc2nccc3cc(OCC)c(OCC)cc23)cc1OCC [Ethaverine hydrochloride] ; its pronephric angle neck segment = 0.989

pronephric angle neck segment reading for COc1c(O[C@@H]2O[C@H](CO)[C@@H](O)[C@H](O)[C@H]2O)cc2c(c1OC)-c1ccc(SC)c(=O)cc1[C@@H](NC(C)=O)CC2 [Thiocolchicoside] : 0.932

Field pronephric angle neck segment (entry CC(C)Nc1cccnc1N1CCN(C(=O)c2cc3cc(NS(C)(=O)=O)ccc3[nH]2)CC1 ) reads 0.921

// provenance: the supplement of paper PMC7366291
